Biological target: Phosphodiesterase 4 (Homo sapiens, UniProt P27815+Q08499+Q07343+Q08493)
Assay: inhibition of cAMP-specific phosphodiesterase 4 (PDE4) was determined in cytosol from human neutrophils
Assay type: protein assay
Readout Type: Log IC50

In [3]: df
Out[3]:
                                   molecule                         system_under_test  measurement
0  COc1ccc(C2=NN(CCCCOc3ccc(C4=NNC(=O)CC4C)cc3)C(=O)C3CC=CCC23)cc1OC (stereo not drawn)  Phosphodiesterase 4 (Homo sapiens, UniProt P27815+Q08499+Q07343+Q08493)         -8.7
1  COc1ccc(C2=NN(CC(=O)Nc3ccc(C4=NNC(=O)CC4C)cc3)C(=O)C3CC=CCC23)cc1OC (stereo not drawn)  Phosphodiesterase 4 (Homo sapiens, UniProt P27815+Q08499+Q07343+Q08493)         -8.4
2  COc1ccc(C2=NN(c3ccc(C4=NNC(=O)CC4C)cc3)C(=O)C3CC=CCC23)cc1Cl (stereo not drawn)  Phosphodiesterase 4 (Homo sapiens, UniProt P27815+Q08499+Q07343+Q08493)           -7
3  COc1ccc(C2=NN(CC(=O)Nc3ccc(-c4ccc(O)nn4)cc3)C(=O)C3CC=CCC23)cc1OC (stereo not drawn)  Phosphodiesterase 4 (Homo sapiens, UniProt P27815+Q08499+Q07343+Q08493)         -8.1
4  COc1ccc(C2=NN(c3ccccc3)C(=O)C3CC=CCC23)cc1OC (stereo not drawn)  Phosphodiesterase 4 (Homo sapiens, UniProt P27815+Q08499+Q07343+Q08493)         -7.9
5  COc1ccc(C2=NN(CCCCC(=O)Nc3ccc(-c4ccc(O)nn4)cc3)C(=O)C3CC=CCC23)cc1OC (stereo not drawn)  Phosphodiesterase 4 (Homo sapiens, UniProt P27815+Q08499+Q07343+Q08493)         -8.2
6  CCOc1ccc(C2=NN(c3ccc(C4=NNC(=O)CC4C)cc3)C(=O)C3CC=CCC23)cc1OCC (stereo not drawn)  Phosphodiesterase 4 (Homo sapiens, UniProt P27815+Q08499+Q07343+Q08493)         -8.1
7  COc1ccc(C2=NN(c3ccccc3)C(=O)C3CC=CCC23)cc1Cl (stereo not drawn)  Phosphodiesterase 4 (Homo sapiens, UniProt P27815+Q08499+Q07343+Q08493)         -7.1

----------
Biological target: Phosphodiesterase 3 (Homo sapiens, UniProt Q14432+Q13370)
Assay: Inhibition of dual cGMP-inhibited phosphodiesterase 3 (PDE3) was determined in homogenates from human platelets.
Listing: Log IC50 of selected compounds
Readout Type: Log IC50

                                    compound  inequality_symbol  measurement
 0  CC1CC(=O)NN=C1c1ccc2c(c1)C(C)(C)C(=O)N2 (stereo unspecified)                  =         -7.9
 1  CC1CC(=O)NN=C1c1ccc(-n2cnc3c2CCCC3)cc1 (stereo unspecified) [TETRAHYDROBENXIMIDAZOLE]                  =         -6.3
 2  COc1ccc(C2=NN(c3ccccc3)C(=O)C3CC=CCC23)cc1Cl (stereo unspecified)                  <           -5
 3  COc1ccc(C2=NN(CC(=O)Nc3cccc(C4=NNC(=O)CC4C)c3)C(=O)C3CC=CCC23)cc1OC (stereo unspecified)                  =         -5.8
 4  COc1ccc(C2=NN(CCCCOc3ccc(C4=NNC(=O)CC4C)cc3)C(=O)C3CC=CCC23)cc1Cl (stereo unspecified)                  =         -7.5
 5  COc1ccc(C2=NN(c3ccc(C4=NNC(=O)CC4C)cc3)C(=O)C3CC=CCC23)cc1OC1CCCC1 (stereo unspecified)                  =         -6.3
 6  CCOc1ccc(C2=NN(c3ccccc3)C(=O)C3CC=CCC23)cc1OCC (stereo unspecified)                  <           -5
 7  COc1ccc(C2=NN(c3ccccc3)C(=O)C3CC=CCC23)cc1OC (stereo unspecified)                  <           -5
 8  COc1ccc(C2=NN(CCCCC(=O)Nc3ccc(-c4ccc(O)nn4)cc3)C(=O)C3CC=CCC23)cc1OC (stereo unspecified)                  =         -6.1
 9  COc1ccc(C2=NN(CC(=O)Nc3ccc(-c4ccc(O)nn4)cc3)C(=O)C3CC=CCC23)cc1OC (stereo unspecified)                  =         -5.9
10  COc1ccc(C2=NN(c3ccc(-c4ccc(O)nn4)cc3)C(=O)C3CC=CCC23)cc1OC (stereo unspecified)                  =         -5.4
11  CCOc1ccc(C2=NN(CCCCOc3ccc(C4=NNC(=O)CC4C)cc3)C(=O)C3CC=CCC23)cc1OCC (stereo unspecified)                  =         -6.7
12       CC1(C)C(=O)Nc2ccc(-c3ccc(O)nn3)cc21                  =         -6.9
13  COc1ccc(C2=NN(c3ccc(C4=NNC(=O)CC4C)cc3)C(=O)C3CC=CCC23)cc1Cl (stereo unspecified)                  =         -7.1
14  COc1ccc(C2=NN(CCCCOc3ccc(C4=NNC(=O)CC4C)cc3)C(=O)C3CC=CCC23)cc1OC (stereo unspecified)                  =         -7.1
15  CCOc1ccc(C2=NN(c3ccc(C4=NNC(=O)CC4C)cc3)C(=O)C3CC=CCC23)cc1OCC (stereo unspecified)                  =         -6.6
16  COc1ccc(C2=NN(c3ccccc3)C(=O)C3CC=CCC23)cc1OC1CCCC1 (stereo unspecified)                  <           -5
17  COc1ccc([C@]2(C#N)CC[C@@H](C(=O)O)CC2)cc1OC1CCCC1                  <           -5
18  COc1ccc(C2=NN(c3ccc(C4=NNC(=O)CC4C)cc3)C(=O)C3CC=CCC23)cc1OC (stereo unspecified)                  =         -6.7
19  COc1ccc(C2=NN(CCCCC(=O)Nc3ccc(C4=NNC(=O)CC4C)cc3)C(=O)C3CC=CCC23)cc1OC (stereo unspecified)                  =           -7
20  COc1ccc(C2=NN(CC(=O)Nc3ccc(C4=NNC(=O)CC4C)cc3)C(=O)C3CC=CCC23)cc1OC (stereo unspecified)                  =         -6.7
